experiment: Cytotoxicity against human HuH7 cells assessed as reduction in cell viability; format: cell-based, Huh-7; conditions: read-out: TD50 (the source's name)
OBSERVABLE: CC50

compound_structure_string=CC(C)OC(=O)[C@H](C)N[P@](=O)(OC[C@H]1O[C@@H](n2ccc(=O)[nH]c2=O)C(F)(F)[C@@H]1O)Oc1ccccc1 recorded_result="0.384 µM"
compound_structure_string=CC(C)OC(=O)[C@H](C)N[P@](=O)(OC[C@H]1O[C@@H](n2ccc(=O)[nH]c2=O)[C@](C)(F)[C@@H]1O)Oc1ccccc1 recorded_result="> 100 µM"

Field: next compound
Given item `CC(C)OC(=O)[C@H](C)N[P@](=O)(OC[C@H]1O[C@@H](n2ccc(=O)[nH]c2=O)[C@@](Cl)(Br)[C@@H]1O)Oc1ccccc1` , the value recorded as its CC50 is > 100 µM

---

assay: Unbound drug level in dog plasma; format: ADME, cell-free, Canis lupus familiaris
# key: entry, value: fraction unbound
Lab note: record the figure alone, no unit after it.

compound=CCOC(=O)C(C)(C)N[P@@](=O)(OC[C@H]1O[C@@H](n2ccc(=O)[nH]c2=O)[C@](Cl)(Br)[C@@H]1O)Oc1ccccc1 observable="fraction unbound" recorded_result=0.187
compound="CC(C)OC(=O)[C@H](C)N[P@](=O)(OC[C@H]1O[C@@H](n2ccc(=O)[nH]c2=O)[C@](C)(F)[C@@H]1O)Oc1ccccc1 [SOFOSBUVIR]" observable="fraction unbound" recorded_result=0.323

Field: next compound
Given item CC(C)OC(=O)C(C)(C)NP(=O)(OC[C@H]1O[C@@H](n2ccc(=O)[nH]c2=O)[C@](Cl)(Br)[C@@H]1O)Oc1ccccc1 (stereo partly drawn) , the value recorded as its fraction unbound is 0.13

---

test system: Hepatitis C virus; experiment: Antiviral activity against HCV genotype 1b Con1 over expressing CES1 infected in human HuH7 replicon cells assessed as inhibition of viral replication after 3 days by luciferase reporter gene assay; format: functional, organism-based, Hepacivirus hominis; details: subtype 1b Con1, Huh-7, 72 h
Label Condition met when EC50 < 70 nM; otherwise Condition not met.

See these solved cases before continuing.
molecule=CC(C)OC(=O)[C@H](C)N[P@](=O)(OC[C@H]1O[C@@H](n2ccc(=O)[nH]c2=O)[C@@](F)(Br)[C@@H]1O)Oc1ccccc1 label="Condition met"
molecule="CC(C)OC(=O)[C@H](C)N[P@](=O)(OC[C@H]1O[C@@H](n2ccc(=O)[nH]c2=O)[C@](C)(F)[C@@H]1O)Oc1ccccc1 [SOFOSBUVIR]" label="Condition met"
molecule="CC(C)OC(=O)C(C)(C)NP(=O)(OC[C@H]1O[C@@H](n2ccc(=O)[nH]c2=O)[C@](Cl)(Br)[C@@H]1O)Oc1ccccc1 (stereo partly specified)" label="Condition not met"
molecule=CC(C)OC(=O)[C@H](C)N[P@@](=O)(OC[C@H]1O[C@@H](n2ccc(=O)[nH]c2=O)[C@](Cl)(Br)[C@@H]1O)Oc1ccccc1 label="Condition not met"

Prompt: EC50 strictly < 70 nM for this molecule? `CCOC(=O)C(C)(C)N[P@](=O)(OC[C@H]1O[C@@H](n2ccc(=O)[nH]c2=O)[C@](Cl)(Br)[C@@H]1O)Oc1ccccc1`
Response: Condition not met

---

assay: Cytotoxicity against human HuH7 cells assessed as reduction in cell viability; format: cell-based, Huh-7; conditions: read-out: TD50 (the source's name)
OBSERVABLE: CC50 (µM)
Write the number in µM without appending the unit.

A selection of reference data follows.
molecule="CC(C)OC(=O)[C@H](C)N[P@](=O)(OC[C@H]1O[C@@H](n2ccc(=O)[nH]c2=O)C(C)(C)C1O)Oc1ccccc1 (single isomer, unassigned)" recorded_result=31.6
molecule=CC(C)OC(=O)[C@H](C)N[P@](=O)(OC[C@H]1O[C@@H](n2ccc(=O)[nH]c2=O)[C@](F)(Br)[C@@H]1O)Oc1ccccc1 recorded_result=26.5

Given item `CC(C)OC(=O)[C@H](C)N[P@](=O)(OC[C@H]1O[C@@H](n2ccc(=O)[nH]c2=O)[C@](Cl)(Br)[C@@H]1O)Oc1ccccc1` , the value recorded as its CC50 is 80
